# studyConditions: in ethyl acetate, 298.15 K
experimentalReadout: solubility (mole fraction)

                      smilesrepresentation  observed
0  [NH3+]O.[NH3+]O.[O-]n1nnnc1-c1nnnn1[O-]  2.16e-06

---

# studyConditions: in ethyl acetate, 313.15 K
experimentalReadout: solubility (mole fraction)

In [3]: df
Out[3]:
                      smilesrepresentation         experimentalreadout  observed
0  [NH3+]O.[NH3+]O.[O-]n1nnnc1-c1nnnn1[O-]  solubility (mole fraction)  3.16e-06

---

# studyConditions: in ethanol, 303.15 K
experimentalReadout: solubility (mole fraction)

In [3]: df
Out[3]:
                      smilesrepresentation         experimentalreadout  observed
0  [NH3+]O.[NH3+]O.[O-]n1nnnc1-c1nnnn1[O-]  solubility (mole fraction)  5.92e-06

---

# studyConditions: in water, 308.15 K
experimentalReadout: solubility (mole fraction)

>>> df
                      smilesrepresentation         experimentalreadout  observed
0  [NH3+]O.[NH3+]O.[O-]n1nnnc1-c1nnnn1[O-]  solubility (mole fraction)  3.59e-05

---

# studyConditions: in ethyl acetate, 318.15 K
experimentalReadout: solubility (mole fraction)

>>> df
                      smilesrepresentation  observed
0  [NH3+]O.[NH3+]O.[O-]n1nnnc1-c1nnnn1[O-]  3.56e-06

---

# studyConditions: in DMF, 293.15 K
experimentalReadout: solubility (mole fraction)

>>> df
                      smilesrepresentation         experimentalreadout  observed
0  [NH3+]O.[NH3+]O.[O-]n1nnnc1-c1nnnn1[O-]  solubility (mole fraction)  6.38e-05

---

# studyConditions: in DMF, 323.15 K
experimentalReadout: solubility (mole fraction)

>>> df
                      smilesrepresentation  observed
0  [NH3+]O.[NH3+]O.[O-]n1nnnc1-c1nnnn1[O-]  0.000269

---

# studyConditions: in ethanol, 293.15 K
experimentalReadout: solubility (mole fraction)

>>> print(df.to_string())
                      smilesrepresentation  observed
0  [NH3+]O.[NH3+]O.[O-]n1nnnc1-c1nnnn1[O-]  3.87e-06

---

# studyConditions: in toluene, 298.15 K
experimentalReadout: solubility (mole fraction)

                      smilesrepresentation  observed
0  [NH3+]O.[NH3+]O.[O-]n1nnnc1-c1nnnn1[O-]   2.2e-05

---

# studyConditions: in toluene, 303.15 K
experimentalReadout: solubility (mole fraction)

>>> df
                      smilesrepresentation  observed
0  [NH3+]O.[NH3+]O.[O-]n1nnnc1-c1nnnn1[O-]  2.44e-05

---

# studyConditions: in DMF, 318.15 K
experimentalReadout: solubility (mole fraction)

>>> df
                      smilesrepresentation         experimentalreadout  observed
0  [NH3+]O.[NH3+]O.[O-]n1nnnc1-c1nnnn1[O-]  solubility (mole fraction)  0.000225

---

# studyConditions: in DMF, 313.15 K
experimentalReadout: solubility (mole fraction)

>>> print(df.to_string())
                      smilesrepresentation  observed
0  [NH3+]O.[NH3+]O.[O-]n1nnnc1-c1nnnn1[O-]  0.000183
